- Test system: Salmonidae
- experimental-protocol: Binding affinity to salmon testes DNA assessed as transition temperature
Reported T values for a set of molecules
Please reply with the bare figure in °C and do not write the unit itself.

smiles-str	unit-string	T
NCCCC[C@@H]1NC(=O)c2coc(n2)-c2coc(n2)-c2coc(n2)[C@H](CCCCN)NC(=O)c2coc(n2)-c2coc(n2)-c2coc1n2	°C	79
CC(C)[C@@H]1NC(=O)c2coc(n2)-c2coc(n2)-c2coc(n2)[C@H](CCCCN)NC(=O)c2coc(n2)-c2coc(n2)-c2coc1n2	°C	76.5
CC(=O)NCCCC[C@@H]1NC(=O)c2coc(n2)-c2coc(n2)-c2coc(n2)[C@H](C(C)C)NC(=O)c2coc(n2)-c2coc(n2)-c2coc1n2	°C	76.5

Query string: What value of measured T is listed for CC(C)[C@@H]1NC(=O)c2coc(n2)-c2coc(n2)-c2coc(n2)[C@H](C(C)C)NC(=O)c2coc(n2)-c2coc(n2)-c2coc1n2 ?
Result string: 76.5

Query string: Same thing, different molecule: CC(C)[C@@H]1NC(=O)c2coc(n2)-c2coc(n2)-c2coc(n2)[C@H](CCCCN(C)C)NC(=O)c2coc(n2)-c2coc(n2)-c2coc1n2
Result string: 76

* * *

- Species: Homo sapiens
- experimental-protocol: Binding affinity to human d(T2AG3)4 DNA assessed as transition temperature
In this section, each of the compounds is paired with its reported T.
State just the number; it will be interpreted in °C.

Query string: Give the measured T of CC(C)[C@@H]1NC(=O)c2coc(n2)-c2coc(n2)-c2coc(n2)[C@H](C(C)C)NC(=O)c2coc(n2)-c2coc(n2)-c2coc1n2 [HEXAOXAZOLE DIVALINE] .
Result string: 77

Query string: How about CC(C)[C@@H]1NC(=O)c2coc(n2)-c2coc(n2)-c2coc(n2)[C@H](CCCCN)NC(=O)c2coc(n2)-c2coc(n2)-c2coc1n2 ?
Result string: 90

Query string: Another compound: CC(=O)NCCCC[C@@H]1NC(=O)c2coc(n2)-c2coc(n2)-c2coc(n2)[C@H](C(C)C)NC(=O)c2coc(n2)-c2coc(n2)-c2coc1n2
Result string: 79

Query string: Another compound to look at: CC(C)[C@@H]1NC(=O)c2coc(n2)-c2coc(n2)-c2coc(n2)[C@H](CCCCN(C)C)NC(=O)c2coc(n2)-c2coc(n2)-c2coc1n2
Result string: 81

Query string: Now consider NCCCC[C@@H]1NC(=O)c2coc(n2)-c2coc(n2)-c2coc(n2)[C@H](CCCCN)NC(=O)c2coc(n2)-c2coc(n2)-c2coc1n2 .
Result string: 102
